Provide the reported IC50 of each item.
Target: EGFR^WT kinase (Homo sapiens)
Sequence (P00533 25-1210): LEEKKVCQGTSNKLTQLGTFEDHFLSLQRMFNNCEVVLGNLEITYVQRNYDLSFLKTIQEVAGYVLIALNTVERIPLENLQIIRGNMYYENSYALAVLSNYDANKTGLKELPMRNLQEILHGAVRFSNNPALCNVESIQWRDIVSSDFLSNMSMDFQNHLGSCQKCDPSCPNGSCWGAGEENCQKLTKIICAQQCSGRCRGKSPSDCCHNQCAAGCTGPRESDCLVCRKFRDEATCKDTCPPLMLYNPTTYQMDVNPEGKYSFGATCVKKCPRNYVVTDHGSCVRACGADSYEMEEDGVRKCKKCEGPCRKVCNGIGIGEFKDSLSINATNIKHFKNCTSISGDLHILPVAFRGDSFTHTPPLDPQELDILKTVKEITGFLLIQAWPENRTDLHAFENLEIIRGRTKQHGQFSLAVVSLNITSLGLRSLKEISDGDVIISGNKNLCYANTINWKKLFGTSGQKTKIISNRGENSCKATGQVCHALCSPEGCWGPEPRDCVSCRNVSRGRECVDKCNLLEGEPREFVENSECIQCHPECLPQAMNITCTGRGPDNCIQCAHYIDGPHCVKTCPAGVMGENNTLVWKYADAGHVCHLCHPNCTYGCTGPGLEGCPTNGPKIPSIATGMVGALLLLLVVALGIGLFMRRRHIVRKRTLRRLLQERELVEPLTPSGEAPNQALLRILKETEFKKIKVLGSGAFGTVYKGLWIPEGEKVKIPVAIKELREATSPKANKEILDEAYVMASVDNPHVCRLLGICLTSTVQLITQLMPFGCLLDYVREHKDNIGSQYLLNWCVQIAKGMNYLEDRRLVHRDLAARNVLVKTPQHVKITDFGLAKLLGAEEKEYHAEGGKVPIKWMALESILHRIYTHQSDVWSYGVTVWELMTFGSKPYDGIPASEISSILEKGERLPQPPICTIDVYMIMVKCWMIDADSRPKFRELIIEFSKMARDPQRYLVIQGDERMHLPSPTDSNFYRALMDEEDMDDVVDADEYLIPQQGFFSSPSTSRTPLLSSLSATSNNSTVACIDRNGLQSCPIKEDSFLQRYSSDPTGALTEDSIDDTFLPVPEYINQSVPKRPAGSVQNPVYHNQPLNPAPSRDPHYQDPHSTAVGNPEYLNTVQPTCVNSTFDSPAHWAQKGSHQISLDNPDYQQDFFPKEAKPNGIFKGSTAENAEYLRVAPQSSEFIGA
Experiment: EGFR^WT kinase assay (ULight/PT66 TR-FRET)
Assay type: biochemical

Worked cases, answers included:
{"columns": ["molecule", "measured.value"],
 "data": [
  ["COCCCCOc1c(NC(=O)/C=C/[C@H]2CCCN2C)ccc2ncnc(Nc3ccc(OCc4ccccn4)c(Cl)c3)c12 [Example 23]", "100 to 1000 nM"],
  ["CN1CCC[C@@H]1/C=C/C(=O)Nc1ccc2ncnc(Nc3ccc(OCc4ccccn4)c(Cl)c3)c2c1OC1CC1 [Example 37]", "10 to 100 nM"],
  ["COCCCNc1c(NC(=O)/C=C/[C@H]2CCCN2C)ccc2ncnc(Nc3ccc(OCc4ccccn4)c(Cl)c3)c12 [Example 32]", "100 to 1000 nM"],
  ["CC(C)COc1c(NC(=O)/C=C/[C@H]2CCCN2C)ccc2ncnc(Nc3ccc(OCc4ccccn4)c(Cl)c3)c12 [Example 14]", "< 10 nM"],
  ["COc1cccc(COc2ccc(Nc3ncnc4ccc(NC(=O)/C=C/[C@H]5CCCN5C)c(OC)c34)cc2Cl)n1 [Example 27]", "10 to 100 nM"],
  ["CCN1CCC[C@@H]1/C=C/C(=O)Nc1ccc2ncnc(Nc3ccc(OCc4ccccn4)c(Cl)c3)c2c1OC [Example 29]", "< 10 nM"]
]}

Now for another entry.
Ask: State its IC50: CCOc1c(NC(=O)/C=C/[C@H]2CCCN2CC)ccc2ncnc(Nc3ccc(OCc4cccc(F)c4)c(Cl)c3)c12 [Example 19]
Result: < 10 nM

* * *

Provide the reported Cl_obs of each item.
Assay: Pharmacokinetics in SD rats, single intravenous injection and oral administration
Assay type: in vivo, SD rat
Settings: IV 3 mg/kg
Answers are plain numbers, in mL/min/kg.

Worked cases, answers included:
{"columns": ["compound", "unit.abbrev", "Cl_obs"],
 "data": [
  ["COCCCOc1c(NC(=O)/C=C/[C@H]2CCCN2C)ccc2ncnc(Nc3ccc(OCc4ccccn4)c(Cl)c3)c12 [Example 9]", "mL/min/kg", 53.0],
  ["CN1CCC[C@@H]1/C=C/C(=O)Nc1ccc2ncnc(Nc3ccc(OCc4ccccn4)c(Cl)c3)c2c1 [Control compound 1, reference compound]", "mL/min/kg", 72.7]
]}

Ask: State its Cl_obs: COc1c(NC(=O)/C=C/[C@H]2CCCN2C)ccc2ncnc(Nc3ccc(OCc4ccccn4)c(Cl)c3)c12 [Example 4]
Result: 52.1

* * *

Test system: BT474 cells
Experiment: Inhibition of cell proliferation, CTG method, BT474
Format: cell-based
Conditions: Homo sapiens, BT-474, 72 hours, read-out: hBT474 IC50
readout.type: IC50

{"columns": ["molecule", "target.entity", "IC50"],
 "data": [
  ["COc1c(NC(=O)/C=C/[C@H]2CCCN2C)ccc2ncnc(Nc3ccc(OCc4ccccn4)c(Cl)c3)c12 [Example 4]", "BT474 cells", "5 to 10 nM"]
]}

Now for another entry.
Ask: State its IC50: CCOc1c(NC(=O)/C=C/[C@H]2CCCN2C)ccc2ncnc(Nc3ccc(OCc4ccccn4)c(Cl)c3)c12 [Example 5]
Result: 10 to 100 nM

* * *

Provide the reported bioavailability of each item.
Assay: Pharmacokinetics in SD rats, single intravenous injection and oral administration
Type: in vivo, SD rat
Conditions: SD, rat, whole blood, PO 10 mg/kg vs IV 3 mg/kg, NA: Exposure was too low to be counted, read-out: F % (bioavailability)
One number for each entry, in %.

Worked cases, answers included:
{"columns": ["compound", "readout.type", "measured.value"],
 "data": [
  ["COCCCOc1c(NC(=O)/C=C/[C@H]2CCCN2C)ccc2ncnc(Nc3ccc(OCc4ccccn4)c(Cl)c3)c12 [Example 9]", "bioavailability", 34.9],
  ["CCOc1cc2ncc(C#N)c(Nc3ccc(OCc4ccccn4)c(Cl)c3)c2cc1NC(=O)/C=C/CN(C)C [NERATINIB, neratinib, reference compound]", "bioavailability", 18.2],
  ["CN1CCC[C@H]1/C=C/C(=O)Nc1ccc2ncnc(Nc3ccc(OCc4ccccn4)c(Cl)c3)c2c1 [Control compound 2, reference compound]", "bioavailability", 0.992]
]}

Now for another entry.
Ask: State its bioavailability: COc1c(NC(=O)/C=C/[C@H]2CCCN2C(C)C)ccc2ncnc(Nc3ccc(OCc4ccccn4)c(Cl)c3)c12 [Example 24]
Result: 25
